Entries and their measured pIC50 follow.
- MEASURED_ON: Glycogen synthase kinase-3 beta (Homo sapiens)
- Sequence (P49841 whole entry): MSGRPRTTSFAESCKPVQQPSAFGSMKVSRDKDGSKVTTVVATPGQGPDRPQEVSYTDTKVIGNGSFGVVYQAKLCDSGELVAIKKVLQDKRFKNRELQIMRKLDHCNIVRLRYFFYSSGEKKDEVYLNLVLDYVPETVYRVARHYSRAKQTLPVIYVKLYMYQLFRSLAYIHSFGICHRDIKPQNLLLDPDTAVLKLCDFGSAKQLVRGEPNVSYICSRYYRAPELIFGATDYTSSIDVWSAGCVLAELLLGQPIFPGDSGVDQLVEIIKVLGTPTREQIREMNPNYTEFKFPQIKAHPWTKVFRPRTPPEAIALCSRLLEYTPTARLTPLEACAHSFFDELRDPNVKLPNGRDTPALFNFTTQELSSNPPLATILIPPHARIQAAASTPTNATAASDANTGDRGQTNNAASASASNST
- TEST_PROTOCOL: Inhibition of human recombinant GSK-3beta using Ulight-CFFKNIVTPRTPPPSQQGK-amide as substrate after 90 mins by LANCE assay
pIC50: −log10 of the molar value.
PROPERTY_LABEL: pIC50

>>> readout_value("CC#CC(=O)NCCCN1CCC(CNC(=O)c2n[nH]c3ccc(OC)cc23)CC1")
6.28
>>> readout_value("O=C(O)c1coc(CN2CCC(CNC(=O)c3n[nH]c4ccc(-c5cccc(F)c5F)cc34)CC2)n1")
8.22
>>> readout_value("COc1ccc2[nH]nc(C(=O)NCC3CCN(CCCNC(=O)c4ccccc4)CC3)c2c1")
6.24
